# Measurement Target: human TLR9 (Homo sapiens (Human), UniProt Q9NR96)
# Sequence (Q9NR96 26-1032): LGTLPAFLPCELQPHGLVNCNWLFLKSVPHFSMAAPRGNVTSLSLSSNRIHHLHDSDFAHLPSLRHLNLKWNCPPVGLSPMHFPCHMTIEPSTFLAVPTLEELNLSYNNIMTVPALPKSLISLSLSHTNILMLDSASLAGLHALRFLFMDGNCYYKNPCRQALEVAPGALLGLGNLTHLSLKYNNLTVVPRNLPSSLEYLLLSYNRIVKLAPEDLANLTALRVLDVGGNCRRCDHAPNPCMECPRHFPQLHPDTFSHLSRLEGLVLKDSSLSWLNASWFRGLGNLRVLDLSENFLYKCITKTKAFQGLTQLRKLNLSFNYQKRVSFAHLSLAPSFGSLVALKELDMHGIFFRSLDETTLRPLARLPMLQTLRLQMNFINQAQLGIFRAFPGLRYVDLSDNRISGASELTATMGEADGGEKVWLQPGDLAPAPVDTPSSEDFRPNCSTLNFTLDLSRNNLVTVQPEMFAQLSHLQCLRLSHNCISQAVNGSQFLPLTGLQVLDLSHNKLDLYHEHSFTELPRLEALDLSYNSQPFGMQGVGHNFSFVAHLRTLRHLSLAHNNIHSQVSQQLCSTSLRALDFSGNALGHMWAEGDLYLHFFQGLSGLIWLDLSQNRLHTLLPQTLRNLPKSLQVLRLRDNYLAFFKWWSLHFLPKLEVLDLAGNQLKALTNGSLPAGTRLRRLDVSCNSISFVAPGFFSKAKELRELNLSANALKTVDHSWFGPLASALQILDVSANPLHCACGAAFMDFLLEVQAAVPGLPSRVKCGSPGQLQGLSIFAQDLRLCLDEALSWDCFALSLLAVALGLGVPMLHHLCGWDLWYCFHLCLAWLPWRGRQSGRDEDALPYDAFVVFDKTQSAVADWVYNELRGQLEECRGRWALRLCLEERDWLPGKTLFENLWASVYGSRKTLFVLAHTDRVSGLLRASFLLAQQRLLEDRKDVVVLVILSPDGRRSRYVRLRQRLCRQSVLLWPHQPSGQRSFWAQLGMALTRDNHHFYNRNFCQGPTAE
# Protocol Details: TLR9 inhibition reporter assay (HEK-Blue SEAP);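 note: SEAP driven by an IFN-β minimal promoter with NF-κB and AP-1 sites, read after 22 h, compounds dosed 0.05 nM–50 µM, inhibition scaled between agonist plus DMSO and reference-inhibitor wells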
# Assay Setup: read-out: TLR9 IC50; HEK-Blue cells overexpressing human TLR9, SEAP reporter, ODN2006 5 nM
Assay Metric: pIC50
Field pIC50 (float): negative decimal logarithm of the concentration in molar.

INSERT INTO assay_data (compound, obs_value) VALUES
  ('CCN(CC(=O)N(C)C)C1CCC(c2nc3c(C(C)C)c(-c4cn5ncnc5c(C)c4C)[nH]c3cc2F)CC1 (stereo not shown) [Example 508]', 5.16),
  ('Cc1c(-c2[nH]c3ccc(C4CC(NC5CCOCC5)C4)nc3c2C(C)C)cn2ncnc2c1C (stereo not shown)', 5.75),
  ('Cc1cc2[nH]c(-c3cc(C)c4ncnn4c3)c(C(C)C)c2nc1C1CCN(C2COC2)CC1', 5.38),
  ('Cc1c(-c2[nH]c3ccc(C4CCN(C5COC5)CC4)nc3c2C(C)C)cn(C)c(=O)c1Cl', 4.72),
  ('Cc1c(-c2[nH]c3ccc(CCC4CN(C5COC5)C4)nc3c2C(C)C)cn2ncnc2c1C [Example 687]', 5.24);

## Task Value lookup for pIC50; key = CCCN1CCC(Oc2ccc3[nH]c(-c4cc(OC)c5ncnn5c4)c(C(C)C)c3n2)CC1
## Result 6.01

## Task Value lookup for pIC50; key = CC(C)c1c(-c2cn(C)c3ncccc23)[nH]c2ccc(CCC3CN(Cc4c[nH]nn4)C3)nc12
## Result 6.78

----------
# Measurement Target: human TLR7 (Homo sapiens (Human), UniProt Q9NYK1)
# Sequence (Q9NYK1 27-1049): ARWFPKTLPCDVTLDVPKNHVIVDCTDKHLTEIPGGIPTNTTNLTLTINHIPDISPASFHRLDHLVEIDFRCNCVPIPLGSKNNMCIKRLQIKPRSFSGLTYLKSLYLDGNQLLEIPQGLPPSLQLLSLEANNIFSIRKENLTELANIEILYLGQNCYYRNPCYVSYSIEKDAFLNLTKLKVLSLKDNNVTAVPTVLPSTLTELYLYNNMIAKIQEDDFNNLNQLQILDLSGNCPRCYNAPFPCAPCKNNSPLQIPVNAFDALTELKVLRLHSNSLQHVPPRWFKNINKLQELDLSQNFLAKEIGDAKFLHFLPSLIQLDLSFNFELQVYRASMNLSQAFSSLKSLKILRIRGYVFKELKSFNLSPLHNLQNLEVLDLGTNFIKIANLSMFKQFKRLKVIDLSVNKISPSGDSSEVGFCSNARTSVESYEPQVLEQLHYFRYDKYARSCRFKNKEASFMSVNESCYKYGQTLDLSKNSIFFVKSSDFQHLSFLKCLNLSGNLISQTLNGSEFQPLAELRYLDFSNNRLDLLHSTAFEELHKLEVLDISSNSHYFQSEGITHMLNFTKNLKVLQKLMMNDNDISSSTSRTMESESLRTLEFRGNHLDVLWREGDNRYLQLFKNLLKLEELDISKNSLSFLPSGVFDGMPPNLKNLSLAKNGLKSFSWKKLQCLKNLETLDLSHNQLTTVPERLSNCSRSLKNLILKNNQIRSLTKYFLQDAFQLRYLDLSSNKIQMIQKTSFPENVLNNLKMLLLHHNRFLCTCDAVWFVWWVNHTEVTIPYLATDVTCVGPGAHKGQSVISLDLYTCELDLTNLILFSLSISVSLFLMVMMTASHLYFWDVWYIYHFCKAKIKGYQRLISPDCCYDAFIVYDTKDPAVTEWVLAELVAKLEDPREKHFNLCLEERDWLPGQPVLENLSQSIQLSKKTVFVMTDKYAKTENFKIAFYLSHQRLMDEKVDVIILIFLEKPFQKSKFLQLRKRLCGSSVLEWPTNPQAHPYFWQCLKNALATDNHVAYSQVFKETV
# Protocol Details: TLR7 inhibition reporter assay (HEK-Blue SEAP)
# Assay type: cell-based
# Assay Setup: HEK-Blue cells overexpressing human TLR7, gardiquimod 7.5 μM stimulation, SEAP reporter
Assay Metric: pIC50
Field pIC50 (float): negative decimal logarithm of the concentration in molar.

INSERT INTO assay_data (compound, obs_value) VALUES
  ('CC(C)c1c(-c2cn(C)c3ncccc23)[nH]c2ccc(C3CCC(NCC(=O)N(C)C)CC3)nc12 (stereo not drawn) [Example 182]', 9.32),
  ('Cc1c(-c2[nH]c3ccc(C4CCC(N(C)C(C)C)CC4)nc3c2C(C)C)cn2ncnc2c1C (stereo not drawn)', 8.82),
  ('Cc1cnc(CNC2CCC(c3ccc4[nH]c(-c5cc(CO)c6ncnn6c5)c(C(C)C)c4n3)CC2)cn1 (stereo not drawn)', 8.82),
  ('Cc1c(-c2[nH]c3ccc(N4CC(N(C)C(=O)CN(C)C)C4)nc3c2C(C)C)cn2ncnc2c1C [Example 19]', 6.90);

## Task Value lookup for pIC50; key = COc1cc(-c2[nH]c3ccc(C4CCC(N(C)C)CC4)nc3c2C(C)C)cn2ncnc12 (stereo not drawn) [Example 179]
## Result 9.04

## Task Value lookup for pIC50; key = Cc1cc(-c2[nH]c3ccc(C4CCC(NC5COC5)CC4)nc3c2C(C)C)cn2ncnc12 (stereo not drawn) [Example 284]
## Result 8.52

## Task Value lookup for pIC50; key = CC(C)c1c(-c2cn(C)c3ncccc23)[nH]c2ccc(C3CCC(N(C)CC(=O)N(C)C)CC3)nc12 (stereo not drawn) [Example 201]
## Result 8.82

## Task Value lookup for pIC50; key = Cc1c(-c2[nH]c3ccc(N4CCN(C(=O)CNCC5CC5)CC4)nc3c2C(C)C)cn2ncnc2c1C
## Result 8.85

----------
# Measurement Target: human TLR7 (Homo sapiens (Human), UniProt Q9NYK1)
# Protocol Details: TLR7 inhibition reporter assay (HEK-Blue SEAP)
# Format: cell-based
# Assay Setup: HEK-Blue human TLR7 cells, gardiquimod 7.5 μM
Classify on IC50 using bottom: < 1 nM; middle: ≥ 1 nM and < 3 nM; top: ≥ 3 nM

Use these answered entries as a reference point.
INSERT INTO measurements (compound, class_name) VALUES
  ('Cc1c(-c2[nH]c3ccc(N4CCN[C@H](CO)C4)nc3c2C(C)C)cn2ncnc2c1C [Example 987]', 'middle'),
  ('COc1cc(-c2[nH]c3ccc(N4CC5(C4)CN(C(C)C)C5)nc3c2C(C)C)cn2ncnc12', 'middle'),
  ('Cc1c(-c2[nH]c3ccc(C4CCC(N5CC(C(=O)N(C)C)C5)CC4)nc3c2C(C)C)cn2ncnc2c1C (stereo not drawn) [Example 1050]', 'middle'),
  ('Cc1c(-c2[nH]c3ccc(N4CCN[C@@H](C)C4)nc3c2C(C)C)cn2ncnc2c1C', 'bottom'),
  ('Cc1c(-c2[nH]c3ccc(N4CCC(N(C)CCS(C)(=O)=O)CC4)nc3c2C(C)C)cn2ncnc2c1C', 'middle'),
  ('Cc1c(-c2[nH]c3ccc(N4C[C@@H](C)N(C(=O)CN(CCO)C(C)(C)C)[C@H](C)C4)nc3c2C(C)C)cn2ncnc2c1C', 'top'),
  ('COC1CN(C2CCC(c3ccc4[nH]c(-c5cn6ncnc6c(C)c5C)c(C(C)C)c4n3)CC2)C1 (stereo not drawn) [Example 1045]', 'top'),
  ('[2H]C([2H])([2H])NCCC(=O)N1C[C@H](C)N(c2ccc3[nH]c(-c4cn5ncnc5c(C)c4C)c(C(C)C)c3n2)C[C@H]1C', 'bottom');

## Task Which category does the recorded IC50 put Cc1c(-c2[nH]c3ccc(N4[C@@H]5CC[C@H]4CN(C(=O)CN(C)C(C)C)C5)nc3c2C(C)C)cn2ncnc2c1C in?
## Result middle

## Task Which category does the recorded IC50 put Cc1c(-c2[nH]c3ccc(N4C[C@H](C)N(C(=O)CN5CCCC5)C[C@H]4C)nc3c2C(C)C)cn2ncnc2c1C in?
## Result bottom

## Task Which category does the recorded IC50 put Cc1c(-c2[nH]c3ccc(N4CCN(CCCS(C)(=O)=O)C[C@H]4C)nc3c2C(C)C)cn2ncnc2c1C in?
## Result middle

----------
# Measurement Target: human TLR9 (Homo sapiens (Human))
# Protocol Details: TLR9 inhibition reporter assay (HEK-Blue SEAP)
# Assay Setup: read-out: TLR9 IC50; HEK-Blue cells overexpressing human TLR9, SEAP reporter, ODN2006 5 nM
Simple rule here: IC50 less than 2000 nM is Condition met, otherwise Condition not met.

Use these answered entries as a reference point.
INSERT INTO measurements (molecule, class_name) VALUES
  ('Cc1c(-c2[nH]c3ccc(C4CCC(NCCS(=O)(=O)C(F)(F)F)CC4)nc3c2C(C)C)cn2ncnc2c1C (centres unmarked) [Example 423]', 'Condition not met'),
  ('COc1cc(-c2[nH]c3ccc(C4CCC(N(CC(N)=O)CC(N)=O)C4)nc3c2C(C)C)cn2ncnc12 (centres unmarked) [Example 708]', 'Condition not met');

## Task Lab note: IC50 threshold 2000 nM. Does this molecule come in strictly under it? CCCN1CCC(COc2ccc3[nH]c(-c4cc(OC)c5ncnn5c4)c(C(C)C)c3n2)CC1 [Example 606]
## Result Condition met

## Task Lab note: IC50 threshold 2000 nM. Does this molecule come in strictly under it? COc1cc(-c2[nH]c3ccc(C4CCC(NC5CCOCC5)C4)nc3c2C(C)C)cn2ncnc12 (centres unmarked) [Example 710]
## Result Condition not met

## Task Lab note: IC50 threshold 2000 nM. Does this molecule come in strictly under it? Cc1cc(-c2[nH]c3ccc(OC4CCN(C)CC4)nc3c2C(C)C)cn2ncnc12 [Example 594]
## Result Condition not met

## Task Lab note: IC50 threshold 2000 nM. Does this molecule come in strictly under it? COc1ncc(CN(C)C2CCC(c3ccc4[nH]c(-c5cn6ncnc6c(C)c5C)c(C(C)C)c4n3)CC2)cn1 (centres unmarked) [Example 395]
## Result Condition met

----------
# Measurement Target: human TLR7 (Homo sapiens (Human))
# Protocol Details: TLR7 inhibition reporter assay (HEK-Blue SEAP)
# Type: cell-based
# Assay Setup: HEK-Blue cells overexpressing human TLR7, SEAP reporter, gardiquimod 7.5 μM
# pIC50 per entry
Field pIC50 (float): negative decimal logarithm of the concentration in molar.

INSERT INTO results (compound, assay_metric, obs_value) VALUES
  ('Cc1c(-c2[nH]c3ccc(C4CCC(N(C)CC(N)=O)CC4)nc3c2C(C)C)cn2ncnc2c1C (centres unmarked) [Example 406]', 'pIC50', 8.85);

## Task So what pIC50 did Cc1c(-c2[nH]c3ccc(C4CC(NC(=O)CN(C)C)C4)nc3c2C(C)C)cn2ncnc2c1C (centres unmarked) get with human TLR7 (Homo sapiens (Human))?
## Result 8.57

## Task So what pIC50 did Cc1c(-c2[nH]c3ccc(C4CCC(N(C)CCS(C)(=O)=O)CC4)nc3c2C(C)C)cn2ncnc2c1C (centres unmarked) [Example 427] get with human TLR7 (Homo sapiens (Human))?
## Result 8.62

## Task So what pIC50 did CCN(CC1(S(C)(=O)=O)CC1)C1CCC(c2ccc3[nH]c(-c4cn5ncnc5c(C)c4C)c(C(C)C)c3n2)CC1 (centres unmarked) get with human TLR7 (Homo sapiens (Human))?
## Result 8.70

## Task So what pIC50 did Cc1cc(-c2[nH]c3ccc(C4CCN(CC#N)CC4)nc3c2C(C)C)cn2ncnc12 get with human TLR7 (Homo sapiens (Human))?
## Result 9.20

## Task So what pIC50 did Cc1c(-c2[nH]c3ccc(C4CCC(NC5CC5)CC4)nc3c2C(C)C)cn2ncnc2c1C (centres unmarked) [Example 421] get with human TLR7 (Homo sapiens (Human))?
## Result 8.80

## Task So what pIC50 did Cc1c(-c2[nH]c3ccc(N4C[C@H]5C[C@@H](C4)N5CCC(N)=O)nc3c2C(C)C)cn2ncnc2c1C get with human TLR7 (Homo sapiens (Human))?
## Result 8.41

## Task So what pIC50 did COc1cc(-c2[nH]c3ccc(OCC4CN(C)C4)nc3c2C(C)C)cn2ncnc12 get with human TLR7 (Homo sapiens (Human))?
## Result 8.96

Attribution: patent US10544143B2
